- tested_on: T1, Notch1 extracellular fragment (amino acid 19-526) Fc fusion protein, R&D Systems 3647-TK (human, UniProt P46531 19-526)
- T1 construct: bought protein; also called Notch1/Fc; Notch1-ECD Fc fusion protein; not shown: Fc of the bought fusion protein
- assay_name: BIAcore SPR, Notch1/Fc on CM5, Mab analyte, 1:1 binding
pKd: −log10 of the molar value.
assay_readout: pKd

1. HN1S3-133 (antibody, human IgG1, lambda, V domains shown) VH: QVQLVQSGPEVKKPGTSVKVSCKASGFTFTSSAVQWVRQARGQRLEWIGWIVVGSGNTNYAQKFQERVTITRDMSTSTAYMELSSLRSEDTAVYYCVADTVYWGQGTLVTVSS VL: QSVLTQPPSVSEAPRQRVTISCSGSSSNIGNNAVNWYQQLPGEAPKLLIYYDDLLPSGVSDRFSGSKSGSSASLAISGLQAEDEADYYCATWDDSLNAWVFGGGTKVTVLQ    9.19
2. S3-009 (antibody, human IgG1, lambda, V domains shown, also called hN1S3-009; HN1S3-9) VH: EVQLVQSGAEVKKPGASVKVSCKASGYNFTGYYMHWVRQAPGQGLEWMGWINPNSGGTNYAQKFQGRVTMTRDTSISTAYMELSRLRSDDTAVYYCATDSFDYWGQGTMVTVSS VL: SYVLTQPPSVSEAPRQRVTISCSGSSSNIGNNAVSWYQQLPGKAPKTLIYYDDLLSSGVSDRFSGSRSGTSASLAISGLQSEDEADYYCAAWDDSLNGVVFGGGTKLTVLQ    8.28
3. S3-094 (antibody, human IgG1, lambda, V domains shown, also called hN1S3-094; HN1S3-94) VH: EVQLVQSGAEVKKPGASVKVSCKASGYNFTGYYMHWVRQAPGQGLEWMGWINPNSGGTNYAQKFQGRVTMTRDTSISTAYMELSRLRSDDTAVYYCATDSFDYWGRGTMVTVSS VL: QSVLTQPPSASGTPGQRVTISCSGGSSNIGSNTVTWYQQLPGKAPKLLIYISDQRPSGVPDRFSGSKSGTSASLAIRGLQSEDEADYYCAAWDDSLNGAVFGTGTKVTVLQ    8.41
4. WC-97 (antibody, human IgG1, lambda, V domains shown, also called N1wc97; hN1wc-97) VH: EVQLVQSGAEVKKPGASVKVSCKASGYNFTGYYMHWVRQAPGQGLEWMGWINPNSGGTNYAQKFQGRVAMTRDTSISTAYMELSRLRSDDSAVYYCATDSFDYWGRGTTVTVSS VL: QSVLTQPPSVSGAPGQRVTISCTGTSSNIGAGYDVQWYQQLPGTAPKVLMYGNSNRPSGVPDRFSGSKSGTSASLAITGLQAEDEADYYCQSYDSSLSGSLFGTGTKVTVLQ    8.10

Data origin: patent US20110286916A1
